biological target: Rac GTPase-activating protein 1 (Homo sapiens, UniProt Q9H0H5); test: blockers of MgcRacGAP-driven Rac1 GTP hydrolysis – biochemical, ADP Hunter fluorescence, primary and confirmatory, confirmation (AID 624330); format: functional
Sequence (Q9H0H5 whole entry): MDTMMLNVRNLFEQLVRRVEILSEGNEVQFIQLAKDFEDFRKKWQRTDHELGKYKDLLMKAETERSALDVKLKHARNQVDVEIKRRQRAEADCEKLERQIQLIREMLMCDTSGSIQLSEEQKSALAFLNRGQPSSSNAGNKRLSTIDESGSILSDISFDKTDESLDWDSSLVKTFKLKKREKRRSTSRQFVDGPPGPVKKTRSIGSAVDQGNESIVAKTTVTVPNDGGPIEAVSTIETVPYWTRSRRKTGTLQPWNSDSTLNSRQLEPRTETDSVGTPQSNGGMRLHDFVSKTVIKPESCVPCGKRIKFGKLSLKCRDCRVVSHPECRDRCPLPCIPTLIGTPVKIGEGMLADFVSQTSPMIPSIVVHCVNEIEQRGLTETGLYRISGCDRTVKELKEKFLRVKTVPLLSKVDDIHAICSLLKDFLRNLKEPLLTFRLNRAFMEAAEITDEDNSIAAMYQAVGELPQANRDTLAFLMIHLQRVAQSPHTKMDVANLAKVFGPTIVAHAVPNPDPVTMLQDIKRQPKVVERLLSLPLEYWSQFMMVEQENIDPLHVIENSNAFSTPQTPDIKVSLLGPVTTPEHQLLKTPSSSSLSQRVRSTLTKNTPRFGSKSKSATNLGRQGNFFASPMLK
Calls of active or inactive are those of the source. No rule for the calls is given here.
READOUT_NAME: IC50

| STRUCTURE | SYSTEM_NAME | IC50 |
| --- | --- | --- |
| O=C(COc1cccc2cccnc12)N/N=C/c1ccc(O)cc1 | Rac GTPase-activating protein 1 (Homo sapiens, UniProt Q9H0H5) | 77 µM (active) |
| COc1cc(/C=C/c2ccc3cccc(O)c3n2)ccc1O | Rac GTPase-activating protein 1 (Homo sapiens, UniProt Q9H0H5) | 72.4 µM (active) |
| CC(=O)N1CCN(c2ccc(NCc3ccc4c(c3)OCO4)cc2)CC1 | Rac GTPase-activating protein 1 (Homo sapiens, UniProt Q9H0H5) | 12.9 µM (active) |

Attention now shifts to the item below.
Measured on Rac GTPase-activating protein 1 (Homo sapiens, UniProt Q9H0H5), Nc1cc(Cc2ccccc2)ccc1O has a documented IC50 of 18 µM (active)

Reference source for all entries: ChEMBL document CHEMBL1201862
